Each recorded value in this set is attributed to paper PMC12051234.

Reported Kd by item:
TARGET OR SYSTEM: T1, SpnNrdR (Streptococcus pneumoniae TIGR4, UniProt P67318 1-157)
T1 sequence: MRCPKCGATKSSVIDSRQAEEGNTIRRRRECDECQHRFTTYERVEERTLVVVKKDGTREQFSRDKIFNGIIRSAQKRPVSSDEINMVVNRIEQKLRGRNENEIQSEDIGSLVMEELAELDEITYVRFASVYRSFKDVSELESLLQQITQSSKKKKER
PROTOCOL TEXT: MST; dATP + ATP; MST, temperature not stated. Lmo: 25 mM Bis-Tris propane pH 6.5, 100 mM KCl, 5 mM MgCl2, 5% glycerol, 1 mM DTT, 0.05% Tween 20, one nucleotide 1 mM or two at 0.5 mM each; Spn: 25 mM HEPES pH 7.2, 250 mM NaCl, 2.5 mM MgCl2, 15% glycerol, 2 mM DTT, 0.1 mg/mL BSA, 0.05% Tween 20, 0.5 mM ATP and/or dATP; Eco: 25 mM Tris pH 8.5, 100 mM NaCl, 7 mM MgCl2, 1 mM DTT, 0.025% Tween 20, 1 mM ATP + 1 mM dATP; …
DETAILS: protein: recombinant; tags: C-terminal His6; chain copies: 4; label: 5'-Cy5 sense; blunt
State just the number; it will be interpreted in µM.

BINDER: Synt 14 bp spacer (dsDNA) DNA 1: GCCAAACACAACATCTAGTGGTTGGATAGCTGAGCACACAACATCTAGTGGACCTC DNA 2: GAGGTCCACTAGATGTTGTGTGCTCAGCTATCCAACCACTAGATGTTGTGTTTGGC
MEASUREMENT UNIT: µM
Kd: 0.699

BINDER: Synt 19 bp spacer (dsDNA) DNA 1: GCCAAACACAACATCTAGTGGTTGGATAGCGTGAAGTAGCACACAACATCTAGTGGACCTC DNA 2: GAGGTCCACTAGATGTTGTGTGCTACTTCACGCTATCCAACCACTAGATGTTGTGTTTGGC
MEASUREMENT UNIT: µM
Kd: 11.6

BINDER: Synt 16 bp spacer (dsDNA) DNA 1: GCCAAACACAACATCTAGTGGTTGGATAGCGTGAAGCACACAACATCTAGTGGACCTC DNA 2: GAGGTCCACTAGATGTTGTGTGCTTCACGCTATCCAACCACTAGATGTTGTGTTTGGC
MEASUREMENT UNIT: µM
Kd: 0.041

BINDER: Synt 27 bp spacer (dsDNA) DNA 1: GCCAAACACAACATCTAGTGGTTGGATAGCGTGAAGTTACCACCTAGCACACAACATCTAGTGGACCTC DNA 2: GAGGTCCACTAGATGTTGTGTGCTAGGTGGTAACTTCACGCTATCCAACCACTAGATGTTGTGTTTGGC
MEASUREMENT UNIT: µM
Kd: 3.19

BINDER: Synt 26 bp spacer (dsDNA) DNA 1: GCCAAACACAACATCTAGTGGTTGGATAGCGTGAAGTTCCACCTAGCACACAACATCTAGTGGACCTC DNA 2: GAGGTCCACTAGATGTTGTGTGCTAGGTGGAACTTCACGCTATCCAACCACTAGATGTTGTGTTTGGC
MEASUREMENT UNIT: µM
Kd: 2.91

[in] Endpoint output: Kd of Synt 24 bp spacer (dsDNA) DNA 1: GCCAAACACAACATCTAGTGGTTGGATAGCGTGAATTCACCTAGCACACAACATCTAGTGGACCTC DNA 2: GAGGTCCACTAGATGTTGTGTGCTAGGTGAATTCACGCTATCCAACCACTAGATGTTGTGTTTGGC . Value?
[out] 9.2

[in] Endpoint output: Kd of Synt 18 bp spacer (dsDNA) DNA 1: GCCAAACACAACATCTAGTGGTTGGATAGCGTGAAGTGCACACAACATCTAGTGGACCTC DNA 2: GAGGTCCACTAGATGTTGTGTGCACTTCACGCTATCCAACCACTAGATGTTGTGTTTGGC . Value?
[out] 6.6

[in] Endpoint output: Kd of Sth nrdHEF (16 bp spacer) (dsDNA) DNA 1: TCAAAACACAAGATATAGGGTTGTGTTTCAATACTAAACACAAAATATTGTATTCCTT DNA 2: AAGGAATACAATATTTTGTGTTTAGTATTGAAACACAACCCTATATCTTGTGTTTTGA . Value?
[out] 0.8
